Attribution: PubChem BioAssay (NCI)

test system: SK-MEL-28 melanoma; assay: NCI-60 one-dose screen, 48 h (100 = growth as untreated, 0 = no growth, -100 = all killed); details: 10 µM unless noted
The panel holds about 83,000 compounds, 20% with a hit somewhere; the sample as a whole holds those more often.
property.label: growth (%)
Response body: numeric value in %, unit text excluded.

{"compound": "CCCCCCCCCCCC1=NC(C)(C)CN1CCO", "unit.label": "%", "growth": 68.5}
{"compound": "O=C(Nc1ccccc1)c1cc2ccccc2s1", "unit.label": "%", "growth": 107}
{"compound": "CC(=O)c1ccc(N2C(=O)c3ccc(Oc4ccccc4)cc3C2=O)cc1", "unit.label": "%", "growth": 111}
{"compound": "CCN(CC)Cc1cc(Nc2ccnc3ccc(OC)cc23)ccc1O", "unit.label": "%", "growth": 105}
{"compound": "COc1cc(C2CC(c3ccc(Cl)cc3)=NN2C=O)ccc1Oc1ccnc2cc(Cl)ccc12 (stereo not given)", "unit.label": "%", "growth": 74.4}
{"compound": "NS(=O)(=O)c1ccc(CCn2c(SCC(=O)N/N=C/c3ccccc3O)nc3ccccc3c2=O)cc1", "unit.label": "%", "growth": 76.5}
{"compound": "O=C(Nc1ccc(-n2ccc3c(NC(=O)c4ccccc4)nccc32)cc1)c1ccc(N2CCOCC2)c(C(F)(F)F)c1", "unit.label": "%", "growth": 25.3}
{"compound": "Cc1cccc(N=NC(=S)NNc2cccc(C)c2)c1", "unit.label": "%", "growth": 125}
{"compound": "O=C(C(=O)N1CCCC1)c1cn(CCCn2cc(C(=O)C(=O)N3CCCC3)c3cc(Br)ccc32)c2ccc(Br)cc12", "unit.label": "%", "growth": 79.8}

Ask: For the compound O=C1CCCN1C(O)CCN(Cc1ccccc1)Cc1ccc(Cl)cc1 (stereo not given) , give its measured growth value.
Result: 115

====

test system: MCF7 breast; experiment: NCI-60 one-dose screen, 48 h; settings: 10 µM unless noted
Compounds without any hit were thinned out: in the full panel of roughly 83,000, 20% have a hit. Active and inactive are the calls of the source. The calls were made as follows: active = growth percent below 10; inactive = the rest.
Give one outcome, nothing more. List: t (active), f (inactive)

These recorded examples may help you get a feel for the data.
{"molecule": "CC1OC(n2c3ccccc3c3c4c(c5c6ccccc6[nH]c5c32)C(=O)N(CCN2CCOCC2)C4=O)CC(O)C1O (stereo not drawn)", "discrete.label": "f"}
{"molecule": "CC(C)c1ccc2c(c1)CCC1C2CCCC1(C)NCc1ccccc1 (stereo not drawn)", "discrete.label": "f"}
{"molecule": "Cc1cc(-c2ccc(N=Nc3c(S(=O)(=O)O)cc4cc(S(=O)(=O)O)cc(O)c4c3O)c(C)c2)ccc1N=Nc1c(S(=O)(=O)O)cc2cc(S(=O)(=O)O)cc(O)c2c1O", "discrete.label": "f"}
{"molecule": "COc1ccc(/C(C)=N/NC(=O)c2ccc(S(C)(=O)=O)cc2)cc1OC", "discrete.label": "f"}
{"molecule": "Cc1cc([N+](=O)[O-])c(C)cc1N", "discrete.label": "f"}
{"molecule": "COc1ccc(C(=O)N2N=C(c3ccc(F)cc3)CC2c2cn(-c3ccccc3)nc2-c2ccccc2)cc1 (stereo not drawn)", "discrete.label": "f"}

Ask: // return assay outcome for CN1C(=O)N(C)C2C1NN=c1s/c(=C\c3ccc(Br)cc3)c(=O)n12 (stereo not drawn)
Result: f

Ask: Hi team, can someone confirm the assay call for Cc1cc(N)cc(C)c1-c1c(Br)cc(N)cc1Br ?
Result: f

Ask: Any idea what this test logged for COc1ccc(-c2cnnn2-c2nonc2-n2cccc2)cc1 ?
Result: f

====

tested on: IGROV1 ovarian; experiment: NCI-60 one-dose screen, 48 h; settings: 10 µM unless noted
About 83,000 compounds went through this panel and 20% of them were active in at least one assay; those are over-represented in the sample as a whole. Activity calls are given as the source filed them. The calls were made as follows: active = growth percent below 10; inactive = the rest.
Output constraint: value belongs to active, inactive

{"compound": "COC(=O)OC1C(O[C@H]2C[C@H]3[C@@H]4CC=C5C[C@@H](O)CC[C@]5(C)[C@H]4CC[C@]3(C)[C@H]2[C@H](C)C(=O)CCC(C)C)OCC(O)C1OC1OCC(O)C(O)C1OC(=O)c1ccc(OC)cc1 (some centres undefined)", "target.desc": "IGROV1 ovarian", "discrete.label": "inactive"}
{"compound": "O=C(/C=C/c1ccc(F)cc1)N1CCN(C(=O)/C=C/c2ccc(C(F)(F)F)cc2)CC1", "target.desc": "IGROV1 ovarian", "discrete.label": "inactive"}
{"compound": "Cc1nn(-c2ccccc2)c2nc3c(nc12)C1=NCCN1C(c1ccc(Cl)cc1)N3 (centres undefined)", "target.desc": "IGROV1 ovarian", "discrete.label": "inactive"}
{"compound": "CC(C)(C)[Si](C)(C)OC1[C@@H](CNC(N)=O)O[C@@H](n2cnc3c(NC(=O)Nc4ccccc4)ncnc32)[C@H]1O[Si](C)(C)C(C)(C)C (some centres undefined)", "target.desc": "IGROV1 ovarian", "discrete.label": "inactive"}
{"compound": "O=[N+]([O-])c1ccc(N/N=C/c2ccccc2O)nc1", "target.desc": "IGROV1 ovarian", "discrete.label": "inactive"}
{"compound": "COc1ccc(CNc2c3ccccc3nc3ccccc23)cc1F", "target.desc": "IGROV1 ovarian", "discrete.label": "inactive"}

Ask: Kindly provide the recorded test outcome for the following compound: O=C(/C=C/c1ccccc1)c1c[nH]c2ccccc2c1=O
Result: active

Ask: Record request — test call for COc1cnc2c(c1)C(=O)c1c-2n(CCCN2CCCC2)c(=O)c2cc(Cl)ccc12
Result: inactive

Ask: Hi, do you know how COc1ccc(C(=O)C(CN(C)C)c2ccc(OC)cc2)cc1 (centres undefined) came out in this test?
Result: inactive

Ask: Assay result, entry C=C(COC(C)=O)[C@H]1CC/C(C)=C/CC/C(C)=C/CC[C@@]2(C)O[C@H]2C1 — outcome?
Result: inactive

Ask: Entry Clc1cc(Cl)cc(-c2cnc3nonc3n2)c1 : call = ?
Result: inactive

Ask: Assay outcome for COc1cc(C)c(Cl)cc1C1=NN(c2ccc(S(N)(=O)=O)cc2)C(/C=C/c2ccccc2)C1 (centres undefined) : what was it?
Result: inactive

Ask: Assay outcome for CCOC(=O)c1ccc(NC(=O)CSC(N)=O)cc1 : what was it?
Result: inactive

Ask: What did the test return for N=c1nc(N2CCCCC2)cc(N)n1O ?
Result: inactive

Ask: What classification did CC(C)CC1NC(=O)C(CC(C)C)N(CO)C1=O (centres undefined) end up with in this test?
Result: inactive

Ask: Outcome? Oc1ccc(-c2nc3ccccc3s2)cc1CN(Cc1ccccn1)Cc1ccccn1
Result: inactive

Ask: How was COc1ccc(-c2cc(-c3cc4ccccc4oc3=O)n(-c3ccccc3)n2)cc1 classified in this test?
Result: inactive

Ask: Per the records of this test, what outcome belongs to CN(C)c1ccc(/C=C\c2cccc[n+]2C)cc1 ?
Result: inactive

Ask: What classification did C=C(C)[C@@H]1CC[C@]2(C(=O)NC(COC(=O)C(Cl)Cl)(COC(=O)C(Cl)Cl)COC(=O)C(Cl)Cl)CC[C@]3(C)[C@H](CC[C@@H]4[C@@]5(C)CC[C@H](OC(C)=O)C(C)(C)[C@@H]5CC[C@]43C)[C@@H]12 end up with in this test?
Result: inactive

====

Tested on: NCI-H522 lung
Experiment: NCI-60 one-dose screen, 48 h
Details: 10 µM unless noted
Procedure: Growth inhibition of the NCI-H522 human Non-Small Cell Lung tumor cell line is measured as a screen for anti-cancer activity. Cells are grown in 96 well plates and exposed to the test compound for 48 hours. Compounds are tested at a single concentration, which is 10^-5 M for most compounds. The reported endpoint is percent growth (GI% or GIPRCNT), where numbers from 0 - 100% represent growth inhibition, and numbers from -100% - 0 represent cell death. […]
Compounds without any hit were thinned out: in the full panel of roughly 83,000, 20% have a hit. Active and inactive are the calls of the source. Rule for the calls: active = growth percent below 10; inactive = the rest.
Choose one outcome from this list and give only that: active, inactive

Below are worked cases with known answers.
{"compound": "COc1cccc(NC(=O)OC(C)C)c1", "discrete.label": "inactive"}
{"compound": "CCN1C(=O)N(CC)C2C1NN=c1s/c(=C\\c3ccc(Br)cc3)c(=O)n12 (stereo unspecified)", "discrete.label": "active"}
{"compound": "CN(C)c1nc(-c2cccs2)n2nc(-c3ccco3)cc2n1", "discrete.label": "inactive"}

Ask: // outcome(item) with item = CCCCCCCCCCCCCCCCCC(=O)[O][Sn]([CH2]CCC)([CH2]CCC)[CH2]CCC
Result: active

Ask: Fill in: this test's call for Cc1ccccc1C1CC(=O)c2ccccc2C1C (stereo unspecified) is ___
Result: inactive

Ask: # lookup: test call for CCCCn1cnc2c(SCc3ccc([N+](=O)[O-])cc3)nc(N)nc21
Result: inactive

Ask: Kindly provide the recorded test outcome for the following compound: CNC1=C([N+](=O)[O-])C(c2ccccc2O)C(C#N)=C(c2cccs2)O1 (stereo unspecified)
Result: active

Ask: Could you check what this test reported for COc1cc(CN(CCC(O)N2CCCC2=O)Cc2ccc3c(c2)OCO3)cc(OC)c1OC (stereo unspecified) ?
Result: inactive

Ask: Hello, I am checking results. What call was entered for COc1cc(OC)c(Cl)cc1N ?
Result: inactive

Ask: Please indicate how the test categorized CN1CCCN(CCNc2nccc(-c3c(-c4cccc(O)c4)nc4sccn34)n2)S1(=O)=O .
Result: inactive

Ask: For this compound, state the assay outcome: COc1cccc(/C(C)=N/NC(=O)CSc2nc3ccccc3c(=O)n2CCc2ccc(S(N)(=O)=O)cc2)c1
Result: inactive
